tgt: Hepatocyte Growth Factor Activator (HGFA) serine protease domain, N-terminal His-tag, recombinant (Homo sapiens (Human)) (UniProt Q04756)
method: fluorogenic inhibition assay
Non-standard residues stand in square brackets, D forms with d. Primed or numbered codes have the meaning given here. *: point of attachment. ketothiazole = C-terminal ketothiazole (kt), c1csc(*)n1; kbt = C-terminal ketobenzothiazole, c1ccc2sc(*)nc2c1; kt″ = ketothiazole, c1csc(*)n1
For each entry below, report its pKi value.
The value called pKi is obtained by taking minus log10 of the concentration in mol/L.

# get_value(readout='pKi', item= Ac-KHLR-{kt″} (SMILES CC(=O)N[C@@H](CCCCN)C(=O)N[C@@H](Cc1c[nH]cn1)C(=O)N[C@@H](CC(C)C)C(=O)N[C@@H](CCCNC(=N)N)C(=O)c1nccs1) [Ac-KHLR(SEQ ID NO: 2)-kt] ) 7.02

Same lookup for Ac-SKLR-kbt (SMILES CC(=O)N[C@@H](CO)C(=O)N[C@@H](CCCCN)C(=O)N[C@@H](CC(C)C)C(=O)N[C@@H](CCCNC(=N)N)C(=O)c1nc2ccccc2s1) [Ac-SKLR(SEQ ID NO: 10)-Kbt] , please. 7.48

Next record, please: Ac-KFLR-ketothiazole (SMILES CC(=O)N[C@@H](CCCCN)C(=O)N[C@@H](Cc1ccccc1)C(=O)N[C@@H](CC(C)C)C(=O)N[C@@H](CCCNC(=N)N)C(=O)c1nccs1) [Ac-KFLR(SEQ ID NO: 5)-kt] 7.10

# iterate: H-[dW]-Leu-Arg-kbt [H-dWLR-kbt] 6.89

meta.source: patent US20180066015A1
